# Test system: rodent lifetime carcinogenesis bioassay, tumor incidence TD50
# testSummary: carcinogenic potency in animals, long-term in vivo studies, CPDB compilation (AID 1745844)
# assayContext: mouse; strain B6C3F1; females; oral dosing; site: lung; lesion: carcinoma; dosed 76 weeks; study length 76 weeks
measuredQuantity: TD50 (mg/kg/day)

[
  {
    "molecule": "CCN(CC)C(=S)SSC(=S)N(CC)CC",
    "measuredQuantity": "TD50",
    "readoutUnits": "mg/kg/day",
    "quantitativeResult": 283
  }
]

----------
# Test system: rodent lifetime carcinogenesis bioassay, tumor incidence TD50
# testSummary: carcinogenic potency in animals, long-term in vivo studies, CPDB compilation (AID 1745844)
# assayContext: rat; strain Sprague-Dawley; females; i.p.; site: peritoneum; lesion: sarcoma, NOS; dosed 52 weeks; study length 83 weeks

[
  {
    "compound": "CC(COc1ccccc1)N(CCCl)Cc1ccccc1 (stereo unspecified)",
    "TD50": "2.36 mg/kg/day"
  }
]

----------
# Test system: rodent lifetime carcinogenesis bioassay, tumor incidence TD50
# testSummary: carcinogenic potency in animals, long-term in vivo studies, CPDB compilation (AID 1745844)
# assayContext: mouse; strain B6C3F1; males; in feed; site: all sites; lesion: hemangioma; dosed 103 weeks; study length 105 weeks
Activity calls are given as the source filed them. How the calls were made is not given here.

[
  {
    "molecule": "CC",
    "studyTarget": "rodent lifetime carcinogenesis bioassay, tumor incidence TD50",
    "TD50": "80800 mg/kg/day (inactive)"
  }
]

----------
# System: rodent lifetime carcinogenesis bioassay, tumor incidence TD50
# testSummary: carcinogenic potency in animals, long-term in vivo studies, CPDB compilation (AID 1745844)
# assayContext: rat; strain Sprague-Dawley; females; i.p.; site: brain; lesion: olfactory neuroblastoma; dosed 26 weeks; study length 86 weeks

[
  {
    "molecule": "CNNCc1ccc(C(=O)NC(C)C)cc1",
    "TD50": "0.418 mg/kg/day"
  }
]

----------
# Test system: rodent lifetime carcinogenesis bioassay, tumor incidence TD50
# testSummary: carcinogenic potency in animals, long-term in vivo studies, CPDB compilation (AID 1745844)
# assayContext: rat; strain MRC; females; in drinking water; site: esophagus; lesion: several types; types named in the paper; dosed 38 weeks; study length 105 weeks
measuredQuantity: TD50

[
  {
    "molecule": "O=NN1CCSCC1",
    "studyTarget": "rodent lifetime carcinogenesis bioassay, tumor incidence TD50",
    "result": "7.69 mg/kg/day"
  }
]

----------
# Tested on: rodent lifetime carcinogenesis bioassay, tumor incidence TD50
# testSummary: carcinogenic potency in animals, long-term in vivo studies, CPDB compilation (AID 1745844)
# assayContext: mouse; strain Charles River CD1; males; in feed; site: liver; lesion: hepatocellular adenoma; dosed 80 weeks; study length 80 weeks
Calls of active or inactive are those of the source. How the calls were made is not given here.
measuredQuantity: TD50

[
  {
    "compound": "OC[C@H]1OC(OC[C@H]2O[C@H](O)[C@H](O)[C@@H](O)[C@@H]2O)[C@H](O)[C@@H](O)[C@@H]1O (stereo partly specified)",
    "studyTarget": "rodent lifetime carcinogenesis bioassay, tumor incidence TD50",
    "result": "46300 mg/kg/day (inactive)"
  }
]

----------
# Tested on: rodent lifetime carcinogenesis bioassay, tumor incidence TD50
# testSummary: carcinogenic potency in animals, long-term in vivo studies, CPDB compilation (AID 1745844)
# assayContext: rat; strain Fischer 344; females; by gavage; site: colon; lesion: adenocarcinoma, NOS; dosed 102 weeks; study length 104 weeks
measuredQuantity: TD50

[
  {
    "molecule": "ClC(Cl)Br",
    "studyTarget": "rodent lifetime carcinogenesis bioassay, tumor incidence TD50",
    "measuredQuantity": "TD50",
    "result": "411 mg/kg/day"
  }
]

----------
# Tested on: rodent lifetime carcinogenesis bioassay, tumor incidence TD50
# testSummary: carcinogenic potency in animals, long-term in vivo studies, CPDB compilation (AID 1745844)
# assayContext: mouse; strain BALB/cStCrlfC3Hf/Nctr; males; in drinking water; site: lung; lesion: adenocarcinoma; dosed 52 weeks; study length 52 weeks

[
  {
    "molecule": "Cc1cc(-c2ccc(N)c(C)c2)ccc1N",
    "readoutUnits": "mg/kg/day",
    "TD50": 123
  }
]

----------
# System: rodent lifetime carcinogenesis bioassay, tumor incidence TD50
# testSummary: carcinogenic potency in animals, long-term in vivo studies, CPDB compilation (AID 1745844)
# assayContext: mouse; strain CF-1; males; in feed; site: lung; lesion: carcinoma; dosed 120 weeks; study length 134 weeks
Calls of active or inactive are those of the source. How the calls were made is not given here.

[
  {
    "molecule": "ClC1=C(Cl)[C@]2(Cl)[C@@H]3[C@@H]4C[C@@H]([C@H]5O[C@@H]45)[C@@H]3[C@@]1(Cl)C2(Cl)Cl",
    "TD50": "3.71 mg/kg/day (inactive)"
  }
]

----------
# Tested on: rodent lifetime carcinogenesis bioassay, tumor incidence TD50
# testSummary: carcinogenic potency in animals, long-term in vivo studies, CPDB compilation (AID 1745844)
# assayContext: rat; strain Fischer 344; males; in drinking water; site: liver; lesion: several types; types named in the paper; dosed 110 weeks; study length 111 weeks

[
  {
    "molecule": "[O-][Br+2]([O-])O",
    "TD50, mg/kg/day": 164
  }
]

----------
# System: rodent lifetime carcinogenesis bioassay, tumor incidence TD50
# testSummary: carcinogenic potency in animals, long-term in vivo studies, CPDB compilation (AID 1745844)
# assayContext: mouse; strain Charles River CD1; males; in feed; site: lung; lesion: adenoma; dosed 56 weeks; study length 69 weeks

[
  {
    "molecule": "C=CC(O)c1ccc2c(c1)OCO2 (stereo unspecified)",
    "TD50 / mg/kg/day": 5470
  }
]

----------
# System: rodent lifetime carcinogenesis bioassay, tumor incidence TD50
# testSummary: carcinogenic potency in animals, long-term in vivo studies, CPDB compilation (AID 1745844)
# assayContext: rat; strain Fischer 344; females; in drinking water; site: pharynx + tongue; lesion: squamous-cell papilloma; dosed 60 weeks; study length 60 weeks
measuredQuantity: TD50 (mg/kg/day)

[
  {
    "molecule": "Cc1cc(-c2ccc(N)c(C)c2)ccc1N",
    "measuredQuantity": "TD50",
    "quantitativeResult": 4.26
  }
]

----------
# System: rodent lifetime carcinogenesis bioassay, tumor incidence TD50
# testSummary: carcinogenic potency in animals, long-term in vivo studies, CPDB compilation (AID 1745844)
# assayContext: rat; strain Fischer 344; males; by gavage; site: subcutaneous tissue; lesion: fibroma + sarcoma, NOS; dosed 103 weeks; study length 105 weeks

[
  {
    "molecule": "COc1c2occc2cc2ccc(=O)oc12",
    "TD50 (mg/kg/day)": 70.2
  }
]

----------
# Test system: rodent lifetime carcinogenesis bioassay, tumor incidence TD50
# testSummary: carcinogenic potency in animals, long-term in vivo studies, CPDB compilation (AID 1745844)
# assayContext: rat; strain Donryu; females; in drinking water; site: small intestine; lesion: adenoma; dosed 68 weeks; study length 68 weeks
measuredQuantity: TD50

[
  {
    "molecule": "NC(=O)N(CC(=O)O)N=O",
    "result": "8.09 mg/kg/day"
  }
]

----------
# Tested on: rodent lifetime carcinogenesis bioassay, tumor incidence TD50
# testSummary: carcinogenic potency in animals, long-term in vivo studies, CPDB compilation (AID 1745844)
# assayContext: mouse; strain B6C3F1; females; in feed; site: liver; lesion: hepatocellular carcinoma; dosed 81 weeks; study length 81 weeks
measuredQuantity: TD50 (mg/kg/day)

[
  {
    "molecule": "Cc1cccc2ccccc12",
    "quantitativeResult": 6040
  }
]

----------
# Test system: rodent lifetime carcinogenesis bioassay, tumor incidence TD50
# testSummary: carcinogenic potency in animals, long-term in vivo studies, CPDB compilation (AID 1745844)
# assayContext: mouse; strain B6C3F1; females; by gavage; site: multiple organs; lesion: malignant lymphoma, lymphocytic type; dosed 103 weeks; study length 104 weeks

[
  {
    "compound": "CCCC(Cl)CCCC(Cl)CCC(Cl)CCC(Cl)CCC(Cl)CCCC(Cl)CCC (stereo unspecified)",
    "TD50": "599 mg/kg/day"
  }
]

----------
# System: rodent lifetime carcinogenesis bioassay, tumor incidence TD50
# testSummary: carcinogenic potency in animals, long-term in vivo studies, CPDB compilation (AID 1745844)
# assayContext: rat; strain SD(Crj:CD) Sprague-Dawley; males; in feed; site: forestomach; lesion: squamous-cell papilloma; dosed 104 weeks; study length 104 weeks

[
  {
    "molecule": "Oc1ccccc1O",
    "studyTarget": "rodent lifetime carcinogenesis bioassay, tumor incidence TD50",
    "TD50": "983 mg/kg/day"
  }
]

----------
# System: rodent lifetime carcinogenesis bioassay, tumor incidence TD50
# testSummary: carcinogenic potency in animals, long-term in vivo studies, CPDB compilation (AID 1745844)
# assayContext: rat; strain Donryu; females; in drinking water; site: mammary gland; lesion: adenocarcinoma; dosed 75 weeks; study length 75 weeks
measuredQuantity: TD50 (mg/kg/day)

[
  {
    "molecule": "CCCCNC(=O)N(CCCC)N=O",
    "quantitativeResult": 22.7
  }
]
